Where these numbers come from: patent US12459951B2

# System: KRas G12D mutant
# ASSAY SUMMARY: Ras GTP Binding Domain Inhibition Assay (Ras Superfamily Assay)
# CONDITIONS USED: 20 μM compound, with SOS
METRIC: KRas G12D mutant + SOS: % inh.

COMPOUND	METRIC	OBSERVED
COCCNc1nc(-c2nccn2C)nn2cc(-c3cccc(OC)c3Cl)c(C)c12	KRas G12D mutant + SOS: % inh.	0 (0 = 0% inhibition)
Cn1ccnc1-c1nc(O)c2c(-c3ccccc3)ccn2n1	KRas G12D mutant + SOS: % inh.	A (A = 1-25% inhibition)
COc1cccnc1Nc1nc(-c2nccn2C)nn2cc(-c3ccn(C)n3)c(C)c12	KRas G12D mutant + SOS: % inh.	A (A = 1-25% inhibition)
COC1CCCN(c2nc(-c3nccn3C)nn3cc(-c4ccn(C(C)C)n4)c(-c4ccccc4)c23)C1 (racemic)	KRas G12D mutant + SOS: % inh.	0 (0 = 0% inhibition)
COC[C@@H]1CC[C@@H]1CNc1nc(-c2ccccn2)nn2cc(-c3ccn(C(C)C)n3)c(C)c12 (racemic)	KRas G12D mutant + SOS: % inh.	0 (0 = 0% inhibition)
COc1cccc(-c2cn3nc(-c4nccn4C)nc(N[C@@H]4CC[C@@H](OC)C4)c3c2-c2ccccc2)c1Cl.Cl (racemic)	KRas G12D mutant + SOS: % inh.	0 (0 = 0% inhibition)
CO[C@H]1CC[C@H](Nc2nc(-c3nccn3C)nn3cc(-c4ccn(C)n4)c(C(=O)NCCN4CCOCC4)c23)C1 (racemic)	KRas G12D mutant + SOS: % inh.	0 (0 = 0% inhibition)
Cc1c(-c2ccn(C(C)C)n2)cn2nc(-c3nccn3C)nc(Nc3cnccn3)c12	KRas G12D mutant + SOS: % inh.	A (A = 1-25% inhibition)
COC1CCCN(c2nc(-c3ccccn3)nn3cc(-c4ccn(C(C)C)n4)c(C)c23)C1 (racemic)	KRas G12D mutant + SOS: % inh.	0 (0 = 0% inhibition)

From here, focus on the item given below.
QUERY: Entry Cc1c(-c2ccn(C(C)C)n2)cn2nc(-c3ccccn3)nc(O)c12 has what KRas G12D mutant + SOS: % inh.?
RESULT: A (A = 1-25% inhibition)

----------
# Test system: Erk1/2 phosphorylation
# ASSAY SUMMARY: Erk1/2 Phosphorylation Assay (western blot), Panc-1
# Type: cell-based, human
# CONDITIONS USED: at 10 μM, * = activation
METRIC: % inh of Erk1/2 phosphorylation in Panc-1

Solved entries:
MOLECULE	OBSERVED
COC1CCCN(c2nc(-c3nccn3C)nn3cc(-c4ccn(C(C)C)n4)c(-c4ccccc4)c23)C1 (racemic) [Compound 21]	0 (0% inhibition)
COc1ccnc(Nc2nc(-c3nccn3C)nn3cc(-c4ccn(CCNC(=O)CCCC[C@H]5SC[C@H]6NC(=O)N[C@H]65)n4)c(C)c23)c1 [Compound 215]	A* (1-25% activation)
CO[C@H]1C[C@H](Nc2nc(-c3nccn3C)nn3cc(-c4ccc(CCN)cc4)c(-c4ccccc4)c23)C1.Cl [Compound 207]	D* (85-100% activation)
Cc1c(-c2ccn(C)n2)cn2nc(-c3nccn3C)nc(Nc3ccc(C(F)F)cn3)c12 [Compound 234]	D* (85-100% activation)
CO[C@H]1CC[C@@H](Nc2nc(-c3nccn3C)nn3cc(-c4cccnc4)c(-c4ccccc4)c23)C1 (racemic) [Compound 193]	D* (85-100% activation)
Cc1c(-c2ccn(C)n2)cn2nc(-c3nccn3C)nc(Nc3ccc(C(F)(F)F)cn3)c12 [Compound 233]	D* (85-100% activation)

QUERY: Form field: % inh of Erk1/2 phosphorylation in Panc-1 recorded for Cc1c(-c2ccn(C)n2)cn2nc(-c3nccn3C)nc(Nc3cc(-c4ccccc4)[nH]n3)c12 [Compound 263] with Erk1/2 phosphorylation (enter value)
RESULT: A (1-25% inhibition)

QUERY: Form field: % inh of Erk1/2 phosphorylation in Panc-1 recorded for Cc1c(-c2ccn(C3CC3)n2)cn2nc(-c3nccn3C)nc(Nc3cc(OCCN(C)C)ccn3)c12 [Compound 147] with Erk1/2 phosphorylation (enter value)
RESULT: A* (1-25% activation)

QUERY: Form field: % inh of Erk1/2 phosphorylation in Panc-1 recorded for COc1cnc(Nc2nc(-c3nccn3C)nn3cc(-c4ccn(C(C)C)n4)c(C)c23)cn1 [Compound 83] with Erk1/2 phosphorylation (enter value)
RESULT: D* (85-100% activation)

QUERY: Form field: % inh of Erk1/2 phosphorylation in Panc-1 recorded for Cc1c(-c2ccn(C)n2)cn2nc(-c3nccn3C)nc(Nc3nccc(OCCN(C)C)n3)c12 [Compound 105] with Erk1/2 phosphorylation (enter value)
RESULT: A (1-25% inhibition)

QUERY: Form field: % inh of Erk1/2 phosphorylation in Panc-1 recorded for Cc1c(-c2ccn(C)n2)cn2nc(-c3nccn3C)nc(Nc3nnco3)c12.Cl [Compound 119] with Erk1/2 phosphorylation (enter value)
RESULT: A* (1-25% activation)

----------
# Tested on: KRas G12D mutant
# ASSAY SUMMARY: Ras GTP Binding Domain Inhibition Assay (Ras Superfamily Assay)
# CONDITIONS USED: at 20 μM, without SOS
METRIC: KRas G12D mutant: % inh.

COMPOUND	TARGET OR SYSTEM	OBSERVED
CO[C@H]1CC[C@@H](Nc2nc(-c3nccn3C)nn3cc(-c4cccnc4)c(-c4ccccc4)c23)C1 (racemic)	KRas G12D mutant	A (A = 1-25% inhibition)
CO[C@H]1C[C@H](Nc2nc(-c3nccn3C)nn3cc(-c4cccc(CN)c4)c(-c4ccccc4)c23)C1	KRas G12D mutant	A (A = 1-25% inhibition)

----------
# System: KRas wild type
# ASSAY SUMMARY: Ras GTP Binding Domain Inhibition Assay (Ras Superfamily Assay)
# CONDITIONS USED: 20 μM compound, without SOS
# Text: Biological Example 3: Ras GTP Binding Domain Inhibition Assay The assays described in Example 3 are collectively referred to as the “Ras Superfamily Assay” throughout this application. […] The small GTPases proteins: KRas wild type. KRas Q61H mutant, KRas G12C mutant, KRas G12D mutants, Rac-1, and Rho-A were expressed as His-tagged proteins. In addition, the Guanosine nucleotide Exchange Factor (GEF) Sos protein (residues 556-1049) was expressed as a His-tagged protein. […]
METRIC: KRas wild type: % inh.

QUERY: Entry COc1cccc(Nc2nc(-c3nccn3C)nn3ccc(C)c23)n1 has what KRas wild type: % inh.?
RESULT: 0 (0 = 0% inhibition)

----------
# Tested on: NCI-H1975 (expressing wild type KRas)
# ASSAY SUMMARY: Proliferation Assay (Cell Viability Assay)
# Format: cell-based
# CONDITIONS USED: Homo sapiens; NCI-H1975, NSCLC, KRas WT
METRIC: IC50

QUERY: Entry COc1cc(Nc2nc(-c3nccn3C)nn3cc(-c4ccn(C(C)C)n4)c(C)c23)ncn1 [Compound 6] has what IC50?
RESULT: 510 to 1000 nM

----------
# System: KRas wild type
# ASSAY SUMMARY: Ras GTP Binding Domain Inhibition Assay (Ras Superfamily Assay)
# CONDITIONS USED: 20 μM compound, without SOS
METRIC: KRas wild type: % inh.

COMPOUND	TARGET OR SYSTEM	METRIC	OBSERVED
COc1cccc(-c2cn3nc(-c4nccn4C)nc(N[C@@H]4CC[C@H](OC)C4)c3c2-c2ccccc2)c1Cl (racemic)	KRas wild type	KRas wild type: % inh.	A (A = 1-25% inhibition)
CO[C@H]1CC[C@H](Nc2nc(-c3nccn3C)nn3cc(-c4ccn(C)n4)c(C(=O)NC4CC4)c23)C1 (racemic)	KRas wild type	KRas wild type: % inh.	A (A = 1-25% inhibition)
COc1cccc(-c2cn3nc(-c4nccn4C)nc(N[C@@H]4CC[C@@H](OC)C4)c3c2-c2ccccc2)c1Cl.Cl (racemic)	KRas wild type	KRas wild type: % inh.	0 (0 = 0% inhibition)

----------
# System: KRas G12D mutant
# ASSAY SUMMARY: Ras GTP Binding Domain Inhibition Assay (Ras Superfamily Assay)
# CONDITIONS USED: 20 μM compound, without SOS
# Description: Biological Example 3: Ras GTP Binding Domain Inhibition Assay The assays described in Example 3 are collectively referred to as the “Ras Superfamily Assay” throughout this application. […] The small GTPases proteins: KRas wild type. KRas Q61H mutant, KRas G12C mutant, KRas G12D mutants, Rac-1, and Rho-A were expressed as His-tagged proteins. In addition, the Guanosine nucleotide Exchange Factor (GEF) Sos protein (residues 556-1049) was expressed as a His-tagged protein. […]
METRIC: KRas G12D mutant: % inh.

Solved entries:
MOLECULE	OBSERVED
COc1cccc(-c2cn3nc(-c4nccn4C)nc(N[C@H]4C[C@H](OC)C4)c3c2-c2ccccc2)c1Cl [Compound 32]	0 (0 = 0% inhibition)
COC1CCCN(c2nc(-c3nccn3C)nn3cc(-c4ccn(C(C)C)n4)c(C)c23)C1 (racemic) [Compound 4]	A (A = 1-25% inhibition)
COc1cccc(-c2cn3nc(-c4nccn4C)nc(N[C@@H]4CC[C@H](OC)C4)c3c2-c2ccccc2)c1Cl (racemic) [Compound 33]	A (A = 1-25% inhibition)
COc1cccc(-c2cn3nc(-c4nccn4C)nc(N[C@H]4C[C@@H](OC)C4)c3c2-c2ccccc2)c1Cl [Compound 31]	A (A = 1-25% inhibition)
COC(=O)c1c(-c2ccn(C)n2)cn2nc(-c3nccn3C)nc(N[C@H]3CC[C@H](OC)C3)c12 (racemic) [Compound 180]	A (A = 1-25% inhibition)

From here, focus on the item given below.
QUERY: Form field: KRas G12D mutant: % inh. recorded for Cn1ccnc1-c1nc(OCCN2CCCC2)c2c(-c3ccccc3)ccn2n1 [Compound 41] with KRas G12D mutant (enter value)
RESULT: 0 (0 = 0% inhibition)
